Please provide measured IC50 for the entries that follow.
molecular target: UniProt P0DTD1; experiment: biochemical; settings: 50% SARS-CoV-2 3CL protease inhibitory concentration; RapidFire MS; read-out: IC50
# unit: nM | format: bare number

Notebook: COc1ccc(Nc2nc(=O)n(-c3cncc(C4CC4)c3)c(=O)n2Cc2cc(F)c(F)c(F)c2)cc1 , IC50 read as 180

The compound CC[C@@H](Nc1nc(=O)n(Cc2ccc[nH]c2=O)c(=O)n1Cc1cc(F)c(F)c(F)c1)C(F)(F)F showed IC50 equal to 520

Input Cn1cc2cc(Nc3nc(=O)n(-c4cncc(Cl)c4)c(=O)n3Cc3cc(F)c(F)cc3F)ccc2n1 . Output IC50: 99
